System: SK-MEL-5 melanoma
experimentNotes: NCI tumour cell line growth inhibition, 48 h
Provide the reported TGI of each item.

[[record]]
compound = "NC(N)=NCCCC(NC(=O)c1c2ccccc2nc2ccccc12)C(=O)O (stereo not given)"
reportedresult = "> 100 µM"


Report TGI for each item below.
1. COC(=O)[C@@H]1COC(=O)N1
2. [Cl-].[Gd+3].[O-]/N=C(\c1ccccc1)c1ccccn1.[O-]/N=C(\c1ccccc1)c1ccccn1.[O-]/N=C(\c1ccccc1)c1ccccn1
3. O=C(CC1=Nc2nnc(-c3nnc4n3C(=O)C(CC(=O)C3CC3)=N4)n2C1=O)C1CC1
4. CC(NNC(=O)c1ccncc1)c1ccc(Cl)cc1Cl (stereo not given)

> 100 µM
> 100 µM
> 100 µM
> 100 µM

---

Tested on: K-562 leukemia
experimentNotes: NCI tumour cell line growth inhibition, 48 h
experimentalEndpoint: TGI

The following molecules have reported results that may help.
[[record]]
molecule = "NC(N)=NCCCC(NC(=O)c1c2ccccc2nc2ccccc12)C(=O)O (centres undefined)"
reportedresult = "> 100 µM"

[[record]]
molecule = "CSc1nc(C)c2c(n1)N(c1ccc(Cl)cc1)CC2"
reportedresult = "> 100 µM"

[[record]]
molecule = "NC(Cc1ccccc1CP(=O)(O)O)C(=O)O (centres undefined)"
reportedresult = "> 100 µM"

[[record]]
molecule = "CC(NNC(=O)c1ccncc1)c1ccc(Cl)cc1Cl (centres undefined)"
reportedresult = "> 100 µM"

[[record]]
molecule = "O=C(Nc1ccc(C(F)(F)F)cc1[N+](=O)[O-])c1cccnc1"
reportedresult = "> 100 µM"


Report TGI for each item below.
1. CCCCCCCCCCCCC1N=C(N)NC2(CCCO2)C1C(=O)OC (centres undefined)
2. CC(=O)OCC1OC(n2c(=S)n(-c3ccccc3)c(=O)c3cc(Br)cc(Br)c32)C(OC(C)=O)C(OC(C)=O)C1OC(C)=O (centres undefined)
3. COc1cc(/C=C2\C(=O)N(C)c3ccccc32)cc(OC)c1OC
4. Cc1ccc(NC(=O)C(=O)Cc2cccc[n+]2[O-])cc1C
5. COc1cc(/C=C\c2cc(OC)c(OC)c(OC)c2)cc(NS(=O)(=O)c2ccc(Cl)cc2)c1OC

1. 5.25 µM
2. > 100 µM
3. > 100 µM
4. > 100 µM
5. 34.6 µM

Report TGI for each item below.
1. CCOC(=O)c1cc2c3c(cc(OC)c2[nH]1)N(C(=O)OCC)CC3
2. CC(=O)[O-].[Mn+3].[O-]c1ccc(Cl)cc1C=NCCN=Cc1cc(Cl)ccc1[O-]

["> 100 µM", "> 100 µM"]

Report TGI for each item below.
1. COc1ccc(/C=C/C(C)=N/OCC(=O)Nc2ccc(Cl)cc2)cc1
2. O=C1C2CC[C@@H]3C(=O)C(Cl)(Cl)[C@@H]3CCC2C1(Cl)Cl (some centres undefined)
3. CC(CC=O)Nc1nn2c(=O)c3ccccc3nc2s1 (centres undefined)
4. COc1ccc(CC[N+]2(C)COc3cc4oc(=O)cc(C)c4cc3C2)cc1OC (centres undefined)
5. COCC1N=C(c2cc(OC)c(OC)c(OC)c2-c2cc3c(cc2[C@H](C)O)OCO3)O[C@H]1c1ccccc1 (some centres undefined)
6. COc1cc2c(cc1OC)C(=O)N(c1ccc(OCCN3CCCC3)cc1)C2=O

1: 17.2 µM; 2: > 100 µM; 3: > 100 µM; 4: > 100 µM; 5: > 10 µM; 6: > 100 µM

Report TGI for each item below.
1. CC1CC(C)C(C(O)CC2CC(=O)N(c3ccccc3)C(=O)C2)C(O)C1 (centres undefined)
2. COc1ccc(/C(CC2OC(=O)c3ccccc32)=N\NC(N)=O)cc1 (centres undefined)

1: > 100 µM; 2: > 100 µM

Report TGI for each item below.
1. O=c1[nH]c2ccc([N+](=O)[O-])c(Cl)c2c2ccccc12
2. Cc1ccc(C2=C(Cl)C(=O)C(c3ccc(C)cc3)=C(Cl)C2=O)cc1
3. CC1=CCN(c2ccccn2)OC1c1ccccc1 (centres undefined)
4. COC(=O)CC1CC2(C(=O)OC)c3[nH]c4ccccc4c3CCN2C1=O (centres undefined)

1: > 100 µM; 2: > 100 µM; 3: > 100 µM; 4: > 100 µM

Report TGI for each item below.
1. N/C(=N\C(N)=N\c1nc2ccccc2s1)c1cnccn1
2. O=C1CNN=C(Cn2nc(-c3ccccc3)c3ccccc3c2=O)N1
3. Cc1cc2c(cc1Cl)Sc1n[nH]c(=O)n1S2(=O)=O
4. COc1ccc(/C=N/Nc2nnc3c(n2)c2ccccc2c2nn(-c4ccccc4Cl)nc23)cc1
5. Cc1ccnc(Nc2ccc([N+](=O)[O-])c(NCCN3CCOCC3)n2)c1

> 100 µM
> 100 µM
> 100 µM
> 100 µM
> 100 µM

Report TGI for each item below.
1. Cc1nc(-n2nc(-c3ccccc3)cc2-c2ccccc2)sc1C(=O)/C=C/c1ccccc1
2. Nc1ccc(C(=O)/C=C/c2ccccc2O)cc1
3. CC(C)=CC(=O)c1c(C(=O)O)nc2ccccc2[n+]1[O-]
4. CC(C)=CCc1c2c(c(O)c3c(=O)c4c(oc13)-c1ccc(O)cc1OC4C=C(C)C)C=CC(C)(C)O2 (centres undefined)

1. > 100 µM
2. > 100 µM
3. > 100 µM
4. 25.9 µM

Given the entry `CC(=O)C(C(C)=O)[C@H]1OC(C)(C)O[C@H]1[C@H]1COC(C)(C)O1` , report its measured TGI.
> 100 µM

---

Provide the reported TGI of each item.
Tested on: MCF7 breast
experimentNotes: NCI tumour cell line growth inhibition, 48 h

The following molecules have reported results that may help.
[[record]]
molecule = "CC(=O)NN(c1ccccc1)C1CCN(c2ccccc2)N1C(C)=O (stereo unspecified)"
experimentalendpoint = "TGI"
reportedresult = "> 10 µM"

[[record]]
molecule = "COc1cc(/C=C2\\C(=O)N(C)c3ccccc32)cc(OC)c1OC"
experimentalendpoint = "TGI"
reportedresult = "> 100 µM"

[[record]]
molecule = "Cc1ncc(CSC(=N)N)n1Cc1ccccc1"
experimentalendpoint = "TGI"
reportedresult = "> 100 µM"

[[record]]
molecule = "CCOC(=O)c1csc(NC(=O)C(C)N2CCOCC2)n1 (stereo unspecified)"
experimentalendpoint = "TGI"
reportedresult = "> 100 µM"

[[record]]
molecule = "O=C(NCc1ccccc1Cl)c1c(O)c2ccccc2[nH]c1=O"
experimentalendpoint = "TGI"
reportedresult = "> 100 µM"

[[record]]
molecule = "CCOC(=O)C1C(c2ccc(OC)cc2)c2c([nH]n(-c3ccccc3)c2=O)CC1(C)O (stereo unspecified)"
experimentalendpoint = "TGI"
reportedresult = "> 100 µM"

[[record]]
molecule = "COc1ccc(/C=N/NC(=S)Nc2cc(C)ccc2OC)cc1"
experimentalendpoint = "TGI"
reportedresult = "> 100 µM"

[[record]]
molecule = "CC(C)[C@@H]1NC(=O)[C@@H]2N=C(O[C@H]2C)[C@H](C(C)C)NC(=O)C2N=C1O[C@H]2C"
experimentalendpoint = "TGI"
reportedresult = "> 100 µM"

[[record]]
molecule = "C#CC#CC#CC#CC#CC#CC#CC#CC[C@@H]1OC[C@@H](COC(=O)O[C@@H](C(=O)O[C@H]2C[C@@]3(O)[C@@H](OC(=O)c4ccccc4)[C@@H]4[C@]5(OC(C)=O)CO[C@@H]5C[C@H](O)[C@@]4(C)C(=O)[C@H](OC(C)=O)C(=C2C)C3(C)C)[C@@H](NC(=O)c2ccccc2)c2ccccc2)O1"
experimentalendpoint = "TGI"
reportedresult = "> 33.3 µM"

[[record]]
molecule = "C[n+]1c2ccccc2c(C(=O)Nc2ccc(S(=O)(=O)Nc3ncccn3)cc2)c2ccccc21"
experimentalendpoint = "TGI"
reportedresult = "> 100 µM"


Now look at this entry.
Given the entry COc1ccc(CC[N+]2(C)COc3cc4oc(=O)cc(C)c4cc3C2)cc1OC (stereo unspecified) , report its measured TGI.
> 100 µM

---

Test system: A498 renal
experimentNotes: NCI tumour cell line growth inhibition, 48 h
experimentalEndpoint: TGI

The following molecules have reported results that may help.
[[record]]
compound = "c1ccc(Nc2nnc(CCCCCCCCc3nnc(Nc4ccccc4)o3)o2)cc1"
systemtested = "A498 renal"
reportedresult = "> 100 µM"

[[record]]
compound = "CSc1nc(C)c2c(n1)N(c1ccc(Cl)cc1)CC2"
systemtested = "A498 renal"
reportedresult = "> 100 µM"


Now look at this entry.
So what TGI did `CN(C)C(=O)Oc1ccc(C(=S)Nc2ccccc2)cc1` get with A498 renal?
> 100 µM

---

Tested on: SF-268 CNS
experimentNotes: NCI tumour cell line growth inhibition, 48 h; in the data active = GI50 below about 0.43 µM; inactive = the rest
Outcomes you can answer with include only these: active, inactive

Call for entry `COc1cc(/C=C\c2cc(OC)c(OC)c(OC)c2)cc(NS(=O)(=O)c2ccc(Cl)cc2)c1OC` :
inactive

Call for entry O=C(c1ccccc1)C(Br)C(Br)c1ccccc1 (configuration not stated) :
inactive

Call for entry `CC(=O)[O-].[Mn+3].[O-]c1ccc(Cl)cc1C=NCCN=Cc1cc(Cl)ccc1[O-]` :
inactive

Call for entry `OCCCCC#Cc1ccccc1C#Cc1ccc(C(F)(F)F)cc1` :
inactive

Call for entry `O=C(OC[C@@H]1CO1)c1cccc2c(=O)c3ccccc3[nH]c12` :
active

Call for entry `CNCc1ccc(-c2[nH]c3cc(F)cc4c3c2CCNC4=O)cc1` :
inactive

Call for entry `COc1ccc(Cc2nc3cc(OC)c(OC)cc3c(=O)[nH]2)cc1` :
inactive
